These entries and their values trace back to ChEMBL document CHEMBL5724914.

PROTOCOL NOTES: The drug is tested on Z-008 corresponding to metagenome with ENA study accession number: PRJEB37062 and ENA sample accession number: ERS12561808 for biotransformation under anaerobic condition. The drug concentrations were measured over 9 timepoints collected between 0 and 24 hours of incubation by liquid-chromatography-coupled mass spectrometry (LC–MS); also: call rule not given here
MEASUREMENT CONTEXT: 2 µM
METRIC: Bacterial Biotransformation

O=C1NCC2(CCN(CCc3ccccc3)CC2)O1 [FENSPIRIDE]: Compound NOT metabolized
CN(C)C(=O)C(CCN1CCC(O)(c2ccc(Cl)cc2)CC1)(c1ccccc1)c1ccccc1 [LOPERAMIDE]: Compound NOT metabolized
CC(C)NCC(O)c1ccc(NS(C)(=O)=O)cc1 (stereo unspecified) [SOTALOL]: Compound NOT metabolized
OC(Cn1cncn1)(Cn1cncn1)c1ccc(F)cc1F [FLUCONAZOLE]: Compound NOT metabolized
CCN(CC)CCOC(=O)C(Cc1cccc2ccccc12)CC1CCCO1.O=C(O)C(=O)O (stereo unspecified) [NAFRONYL OXALATE]: Compound NOT metabolized
CNS(=O)(=O)Cc1ccc2[nH]cc(CCN(C)C)c2c1.O=C(O)CCC(=O)O [SUMATRIPTAN SUCCINATE]: Compound NOT metabolized
CC(C)NCC(O)COc1ccc(COCCOC(C)C)cc1.CC(C)NCC(O)COc1ccc(COCCOC(C)C)cc1.O=C(O)/C=C/C(=O)O (stereo unspecified) [BISOPROLOL FUMARATE]: Compound NOT metabolized
COc1ccccc1OCC(O)CN1CCN(CC(=O)Nc2c(C)cccc2C)CC1 (stereo unspecified) [RANOLAZINE]: Compound NOT metabolized

Q. Tell me the measured Bacterial Biotransformation of `CN1CCc2c(c3ccccc3n2Cc2ccccc2)C1.CN1CCc2c(c3ccccc3n2Cc2ccccc2)C1.O=S(=O)(O)c1cccc2c(S(=O)(=O)O)cccc12` , please.
A. Compound NOT metabolized

Q. Could you share which Bacterial Biotransformation value was measured for O=P(O)(O)O.c1ccc(CN(CC2=NCCN2)c2ccccc2)cc1 [ANTAZOLINE PHOSPHATE] ?
A. Compound NOT metabolized
